tested on: PT22AV; experiment: Minimum inhibitory concentration of fungicides in NYDA agar; conditions: resistance level of PT22AV to the fungicide
measured-parameter: Resistance level

compound="C=CC1(C)OC(=O)N(c2cc(Cl)cc(Cl)c2)C1=O (stereo not drawn)" result=Resistant
compound=CCCCNC(=O)n1c(NC(=O)OC)nc2ccccc21 result=Resistant
compound=CON=C(C(=O)OC)c1ccccc1CON=C(C)c1cccc(C(F)(F)F)c1 result=Resistant
compound=COC(=O)Nc1nc2ccccc2[nH]1 result=Resistant
compound=S1SSSSSSS1 result=Resistant
compound="CCCC(Cn1cncn1)c1ccc(Cl)cc1Cl (stereo not drawn)" result=Sensitive
compound=CO/C=C(/C(=O)OC)c1ccccc1Oc1cc(Oc2ccccc2C#N)ncn1 result=Resistant
compound="C=CCOC(Cn1ccnc1)c1ccc(Cl)cc1Cl (stereo not drawn)" result=Sensitive
compound="[Cl-].[Cu+2].[Cu+2].[OH-].[OH-].[OH-] [Copper oxychloride]" result=Resistant
compound=c1ccc2[nH]c(-c3cscn3)nc2c1 result=Resistant
compound="CC(C)(C)C(O)(CCc1ccc(Cl)cc1)Cn1cncn1 (stereo not drawn)" result=Sensitive
compound="CC12CC1(C)C(=O)N(c1cc(Cl)cc(Cl)c1)C2=O (stereo not drawn)" result=Resistant
